Experiment: 8-day repeat-dose study, tolerability (blood chemistry, hematology, adverse events) in tumor-bearing dogs
Assay type: in vivo, dog
Conditions: Dog 5; Post: 30 min after last injection on day 8; 10 mg s.c. once daily for 8 days
Where a SMILES comes first, the peptide text is derived from it. [ ]: non-standard residue; d: D form. Hyp = O=C(O)[C@@H]1C[C@@H](O)CN1
measurement_label: Bilirubin Conj.
# output: numeric value plus its unit

Give the value of Bilirubin Conj. reported for the following: CC(C)[C@@H]1NC(=O)[C@@H]2C[C@@H](O)CN2C(=O)[C@H]([C@@H](C)O)NC(=O)[C@H](CCCCN)NC(=O)[C@H](CCC(=O)O)NC(=O)[C@H](CC(N)=O)NC(=O)CNC(=O)[C@@H]2C[C@@H](O)CN2C(=O)[C@H](CC(N)=O)NC1=O [AFPep] (cyclo(EKT[Hyp]VN[Hyp]GN)) 0.1 mg/dL
